System: Liver microsomes
Assay text: Metabolic stability in human liver microsomes
Type: ADME, Microsome
Readout label: Stability (%)
Enter your answer as a number in %; do not include the unit.

Answered examples (8):
{"Input smiles": "CCCC(C)(C)C(=O)Nc1cc(C)c(C)c(S(=O)(=O)N2CCOCC2)c1", "Stability, %": 1}
{"Input smiles": "CCCCC(C)(C)C(=O)Nc1cc(C)c(C)c(S(=O)(=O)N2CCOCC2)c1", "Stability, %": 0}
{"Input smiles": "CCC(C)(C)C(=O)Nc1cc(C)c(C)c(S(=O)(=O)N2CCSC2)c1", "Stability, %": 0}
{"Input smiles": "CCC(C)(C)C(=O)Nc1cc(C)c(C)c(S(=O)(=O)N2CCOCC2)c1", "Stability, %": 17}
{"Input smiles": "Cc1cc(NC(=O)C(C)(C(F)(F)F)C(F)(F)F)cc(S(=O)(=O)N2CCOCC2)c1C", "Stability, %": 11}
{"Input smiles": "CCC(C)(C)C(=O)Nc1cc(C)c(C)c(S(=O)(=O)N2CCCCCC2)c1", "Stability, %": 0}
{"Input smiles": "Cc1cc(NC(=O)C2C(C)(C)C2(C)C)cc(S(=O)(=O)N2CCOCC2)c1C", "Stability, %": 17}
{"Input smiles": "CCC(C)(C)C(=O)Nc1cc(C)c(C)c(S(=O)(=O)N2CCS(=O)(=O)CC2)c1", "Stability, %": 1}

# query: Stability of entry `CCC(C)(C)C(=O)Nc1cc2c(c(S(=O)(=O)N3CCOCC3)c1)CCCC2`
1

# query: Stability of entry `Cc1ccc(NC(=O)C2C(C)(C)C2(C)C)cc1S(=O)(=O)N1CCOCC1`
1
